assay: Aqueous solubility of the compound; type: physicochemical
value.kind: solubility

[in] Note solubility for the compound shown: O=C(O)c1ccc(O)c(O)c1
[out] > 1200 µM

----------
Examples of compounds with documented log10 of Kd follow.
assay: Binding affinity to Bacillus anthracis PurE by intrinsic tryptophan fluorescence analysis; conditions: read-out: Kd
Friendly reminder: values = log10 of Kd, unit µM.

Below are worked cases with known answers.
>  <structure.smiles.string>
COc1ccc2ncc(N)cc2c1

>  <log10 of Kd>
1.87

$$$$
>  <structure.smiles.string>
CCc1ccc(C(=O)Nc2nncs2)s1

>  <log10 of Kd>
1.30

$$$$
>  <structure.smiles.string>
Oc1cc(Cl)c(Cl)cc1O

>  <log10 of Kd>
2.26

$$$$
>  <structure.smiles.string>
NC(=S)N1CCc2ccccc21

>  <log10 of Kd>
1.55

$$$$
>  <structure.smiles.string>
Cc1ccc(C(=S)c2nnns2)cc1

>  <log10 of Kd>
1.91

$$$$

[in] Read the entry NCc1cc(-c2ccccc2Cl)on1 and write its reported log10 of Kd.
[out] 2.60

[in] Kindly indicate its recorded log10 of Kd. Item: Cc1cc(C(=O)Nc2cccc(F)c2)no1
[out] 1.98

[in] Supply measured log10 of Kd of COc1ccc(-c2cc(N)[nH]n2)cc1 in your reply.
[out] 2.33

[in] Answer with reported log10 of Kd of Nc1nn2c(-c3ccccc3)nnc2s1
[out] 2.78

[in] Give log10 of Kd for the following compound: CCOc1cc(CO)c(Br)cc1OC
[out] 2.56

[in] Query log10 of Kd for Nc1cncn1[C@@H]1O[C@H](COP(=O)(O)O)[C@@H](O)[C@H]1O
[out] 2.45

[in] Using known records, supply log10 of Kd for CCOc1ccccc1C(=S)N1CCOCC1
[out] 1.79

[in] Using known records, supply log10 of Kd for Cc1cnc(NC(=O)c2ccoc2C)s1
[out] 1.60
